- assay.system: CDK2/cyclin A (Homo sapiens)
- protocol.description: CDK2/cyclin A kinase assay, substrate pRb(773-928)
- Format: biochemical
- experimental.context: Arg155 substitutions; relative to H-His-Ala-Lys-Arg-Arg-Leu-Ile-Phe-NH2 (=1); pRb substrate, [ATP] = 100 μM
observable: Relative activity Kinase Inhibition

# substance, assay.system, observed.value
measured = [
    ("H-His-Ala-Lys-Ala-Arg-Leu-Ile Phe-NH2 (H-HAKARLIF-NH2)", "CDK2/cyclin A (Homo sapiens)", "<0.1"),
    ("H-His-Ala-Lys-Nle-Arg-Leu-Ile Phe-NH2 (H-HAKHRLIF-NH2; not fully specified (residue 4); printed as H-His-Ala-Lys-Nle-Arg-Leu-Ile Phe-NH2)", "CDK2/cyclin A (Homo sapiens)", "<0.1"),
    ("H-His-Ala-Lys-Gln-Arg-Leu-Ile Phe-NH2 (H-HAKQRLIF-NH2)", "CDK2/cyclin A (Homo sapiens)", "<0.1"),
    ("H-His-Ala-Lys-Lys-Arg-Leu-Ile Phe-NH2 (H-HAKKRLIF-NH2)", "CDK2/cyclin A (Homo sapiens)", 0.8),
]

* * *

- assay.system: CDK4/Cyclin D1 (Homo sapiens, UniProt P24385)
- Construct: made in house; host or cells: CDK4: Sf9 insect cells (baculovirus)
- Sequence (P24385 whole entry): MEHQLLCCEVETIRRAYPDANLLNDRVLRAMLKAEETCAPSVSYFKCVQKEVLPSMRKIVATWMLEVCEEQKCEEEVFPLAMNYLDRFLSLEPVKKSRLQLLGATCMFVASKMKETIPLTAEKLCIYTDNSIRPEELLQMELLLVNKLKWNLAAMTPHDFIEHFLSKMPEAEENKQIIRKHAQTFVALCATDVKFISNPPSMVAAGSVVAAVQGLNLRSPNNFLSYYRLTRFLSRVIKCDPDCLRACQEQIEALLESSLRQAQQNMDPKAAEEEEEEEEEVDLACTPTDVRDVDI
- Sequence (P11802 whole entry partner): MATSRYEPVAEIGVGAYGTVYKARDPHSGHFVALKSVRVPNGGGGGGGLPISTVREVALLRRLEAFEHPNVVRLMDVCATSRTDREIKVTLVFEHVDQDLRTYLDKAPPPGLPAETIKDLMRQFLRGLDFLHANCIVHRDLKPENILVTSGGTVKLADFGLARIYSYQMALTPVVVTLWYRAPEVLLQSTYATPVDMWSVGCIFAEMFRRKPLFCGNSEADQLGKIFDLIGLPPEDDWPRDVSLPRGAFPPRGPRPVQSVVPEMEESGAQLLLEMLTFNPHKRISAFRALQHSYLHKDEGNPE
- protocol.description: CDK4/Cyclin D1 kinase assay, phosphorylation of GST-Rb
- Assay type: biochemical
- experimental.context: GST-pRb substrate, [ATP] = 100 μM
Measured Kinase Inhibition Cyclin D1/CDK4 IC30 of individual entries
observable: Kinase Inhibition Cyclin D1/CDK4 IC30 (µM)

# substance, result.modifier, observed.value
data = [
    ("TDFYHSKRRLIF", "=", 15),
    ("DFYHSKRRLIFA", "=", 40),
    ("HSKRRLIFS", "=", 32),
    ("HSKRRLIFSKRK", "=", 34),
    ("YHSKRRLIF", "=", 16),
    ("DFYHSARRLIFS", "=", 200),
    ("DFYHSKRRLAFS", "=", 53),
    ("FYHSKRRLIF", "=", 19),
    ("DAYHSKRRLIFS", "=", 37),
    ("SKRRLIF", "=", 54),
    ("YHSKRRLIFSKR", "=", 45),
    ("FYHSKRRLIFS", "=", 22),
    ("YHSKRRLIFS", "=", 20),
    ("DFYASKRRLIFS", "=", 73),
    ("DFYHSKRRLIF", "=", 13),
    ("FYHSKRRLIFSK", "=", 41),
    ("AFYHSKRRLIFS", "=", 22),
    ("KRRLIF", ">", 200),
    ("DFAHSKRRLIFS", "=", 121),
]

* * *

- assay.system: CDK2/cyclin A (Homo sapiens)
- protocol.description: CDK2/cyclin A kinase assay, substrate pRb(773-928)
- Format: biochemical
- experimental.context: Lys154 substitutions; relative to H-His-Ala-Lys-Arg-Arg-Leu-Ile-Phe-NH2 (=1); pRb substrate, [ATP] = 100 μM
Square brackets hold non-standard residues; d marks the D form. Nle = CCCC[C@H](N)C(=O)O; Abu = CC[C@H](N)C(=O)O
Readings of Relative activity Kinase Inhibition for the listed substances

# substance, result.modifier, Relative activity Kinase Inhibition
measured = [
    ("H-His-Ala-Abu-Arg-Arg-Leu-Ile Phe-NH2 (H-HA[Abu]RRLIF-NH2; SMILES CC[C@H](NC(=O)[C@H](C)NC(=O)[C@@H](N)Cc1c[nH]cn1)C(=O)N[C@@H](CCCNC(=N)N)C(=O)N[C@@H](CCCNC(=N)N)C(=O)N[C@@H](CC(C)C)C(=O)N[C@H](C(=O)N[C@@H](Cc1ccccc1)C(N)=O)[C@@H](C)CC)", "=", 0.8),
    ("H-His-Ala-Arg-Arg-Arg-Leu-Ile Phe-NH2 (H-HARRRLIF-NH2)", "=", 5.7),
    ("H-His-Ala-Leu-Arg-Arg-Leu-Ile Phe-NH2 (H-HALRRLIF-NH2)", "=", 0.1),
    ("H-His-Ala-Ala-Arg-Arg-Leu-Ile Phe-NH2 (H-HAARRLIF-NH2)", "<", 0.1),
    ("H-His-Ala-Nle-Arg-Arg-Leu-Ile Phe-NH2 (H-HA[Nle]RRLIF-NH2; SMILES CCCC[C@H](NC(=O)[C@H](C)NC(=O)[C@@H](N)Cc1c[nH]cn1)C(=O)N[C@@H](CCCNC(=N)N)C(=O)N[C@@H](CCCNC(=N)N)C(=O)N[C@@H](CC(C)C)C(=O)N[C@H](C(=O)N[C@@H](Cc1ccccc1)C(N)=O)[C@@H](C)CC)", "=", "03"),
]
